experiment: Partition coefficient, log P of the compound
Format: physicochemical
experimental-context: octanol/water
metric: logP
Give bare numbers.

Required: logP, one value per compound below.
1. C[N+](C)(C)CCCN1C(=O)c2ccc3c4c(ccc(c24)C1=O)C(=O)N(CCC[N+](C)(C)C)C3=O
2. CCCC[N+](C)(CCCC)CCCN1C(=O)c2ccc3c4c(ccc(c24)C1=O)C(=O)N(CCC[N+](C)(CCCC)CCCC)C3=O

Result ::
1: -2.5; 2: -0.9
